Cited source for all entries: paper PMC10397247

# measuredTarget: T1, 4H850-bH
# T1 chain: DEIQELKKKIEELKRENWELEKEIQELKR
# runDescription: two-hybrid library CCNG1;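 also: natural log of median RNA to DNA barcode read ratio; higher means stronger binding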
Please use TRUE whenever interaction score is not below -0.03, and FALSE whenever it is.

Is reported interaction score greater than or equal to -0.03 here: DEIQELEKKIEELKRENWELKKEIQELKR [4H346-bH]
FALSE

Decide: is the reported value of interaction score for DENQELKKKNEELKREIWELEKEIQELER [4H1985-bH] equal to or greater than -0.03?
FALSE

Identify whether the reported interaction score of the following binder is -0.03 or greater: DKNQELKKKNEELEREIWELEKKIQELKR [4H3974-bH]
FALSE

State whether the measured interaction score reaches -0.03, counting equality as reaching it, for DENQELKKKIEELEREIWELKKENQELKR [4H1804-bH]
FALSE

Kindly determine if interaction score recorded for DEIQELKKEIEELERKNWELKKEIQELKR [4H570-bH] is above or exactly -0.03.
TRUE

# bool: interaction score of DEIQELKKEIEELKRKIWELKKENQELER [4H619-bH] >= -0.03
TRUE

// inclusive: interaction score at least -0.03? input: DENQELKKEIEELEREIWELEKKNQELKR [4H1544-bH]
TRUE

Tell me whether interaction score is at least -0.03 here: DKNQELKKENEELKRKIWELKKEIQELER [4H3817-bH]
FALSE

interaction score >= -0.03 for DKNQELKKKIEELERENWELEKEIQELKR [4H3858-bH] ?
FALSE

Reported interaction score at or above -0.03? DENQELEKKIEELERKNWELKKEIQELKR [4H1338-bH]
TRUE

Could you tell me if the measured interaction score of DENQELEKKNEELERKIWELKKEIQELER [4H1449-bH] reaches -0.03 or more?
FALSE

Reported interaction score at or above -0.03? DKNQELEKEIEELKRKIWELEKENQELKR [4H3172-bH]
FALSE

Please tell me: is the binder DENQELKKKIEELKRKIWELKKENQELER [4H1899-bH] at or over -0.03 in terms of interaction score?
FALSE

Given the entry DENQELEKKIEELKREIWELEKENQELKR [4H1348-bH] , answer whether its interaction score meets or surpasses -0.03.
TRUE
